system_name: Tubulin (Bos taurus) (UniProt Q6B856+Q862L2+Q862F3)
measurement_notes: Inhibition of GTP/glutamate-induced bovine brain tubulin polymerization at 5 uM by […]
Could you please report measured inhibition for the items listed next?
Could you give me the number in %? Just the number is fine.

Record request: inhibition value, item COc1cc(/C=N\OC[C@H]2C[C@@H]2[C@@H]2C[C@]2(C)CCC(O)c2cccs2)cc(OC)c1OC (stereo partly drawn)
26

Now consider COc1ccc(OC)c(C(O)CC/C(C)=C/C=C/CC/C=C\c2cc(OC)c(OC)c(OC)c2)c1 (stereo not drawn) .
3.5

Now consider "C=CC[C@@H](CC/C(C)=C/C=C/CC/C=C\c1csc(C(C)(C)C)n1)OC" .
100

Now consider "C=CC[C@@H](CC/C(C)=C/C=C/CC/C=C\[C@@H]1CSC(C(C)(C)C)=N1)OC" .
100

Now consider COc1cc(/C=C\CC/C=C/C=C(\C)CCC(O)c2cc3ccccc3o2)cc(OC)c1OC (stereo not drawn) .
74.6

###

system_name: Tubulin (Bos taurus) (UniProt Q6B856+Q862L2+Q862F3)
measurement_notes: Inhibition of [3H]colchicin binding to bovine brain tubulin incubated at 5 uM and 30 degreeC for 10 mins in presence of GTP by scintillation spectroscopic method
metric: inhibition (%)
Could you give me the number in %? Just the number is fine.

Give the reported inhibition for "C=CC[C@@H](CC/C(C)=C/C=C/CC/C=C\[C@@H]1COC(C(C)(C)C)=N1)OC" (system: Tubulin (Bos taurus) (UniProt Q6B856+Q862L2+Q862F3)).
14

Now consider "C=CC[C@@H](CC[C@@]1(C)C[C@H]1[C@H]1C[C@@H]1CC/C=C\[C@@H]1CSC([C@@H]2C[C@@H]2C)=N1)OC" .
9

Now consider COc1cc(/C=N\OC[C@@H]2C[C@H]2CCC(C)c2cccs2)cc(OC)c1OC (some centres undefined) .
-10

Now consider "C=CC[C@@H](CC/C(C)=C/C=C/CC/C=C\c1coc(C(C)(C)C)n1)OC" .
7

###

measurement_notes: Growth inhibition of human PC3 cells incubated for 48 hrs by MTS assay
Assay type: functional
condition: PC-3, 48 h
metric: GI50

Record request: GI50 value, item COc1cc(/C=C\CC/C=C/C=C(\C)CCC(O)c2cc3ccccc3o2)cc(OC)c1OC (stereo unspecified)
310 to 596 nM

Now consider COc1ccc(/C=C\CC/C=C/C=C(\C)CCC(O)c2ccco2)c(OC)c1 (stereo unspecified) .
> 50000 nM

Now consider "C=CC[C@@H](CC[C@@]1(C)C[C@H]1[C@H]1C[C@@H]1CC/C=C\[C@@H]1CSC([C@@H]2C[C@@H]2C)=N1)OC" .
> 50000 nM

Now consider COc1ccc(/C=C\CC/C=C/C=C(\C)CCC(O)c2ccccc2OC)c(OC)c1 (stereo unspecified) .
> 50000 nM

Now consider COc1cc(/C=N\OC[C@@H]2C[C@H]2CCC(C)c2cccs2)cc(OC)c1OC (stereo partly specified) .
> 50000 nM

Now consider COc1ccc(/C=C\CC/C=C/C=C(\C)CCC(O)c2cc3ccccc3s2)c(OC)c1 (stereo unspecified) .
> 50000 nM

Now consider COc1cc(/C=C\CC/C=C/C=C(\C)CCC(O)c2cccs2)cc(OC)c1OC (stereo unspecified) .
366 to 380 nM

Now consider COc1cc(/C=N\OC[C@H]2C[C@@H]2[C@@H]2C[C@]2(C)CCC(O)c2cccs2)cc(OC)c1OC (stereo partly specified) .
1200 nM

Now consider COc1ccccc1C(O)CC/C(C)=C/C=C/CC/C=C\c1cc(OC)c(OC)c(OC)c1 (stereo unspecified) .
620 to 933 nM

Now consider COc1cc(/C=C\CC/C=C/C=C(\C)CCC(O)c2cc3ccccc3s2)cc(OC)c1OC (stereo unspecified) .
620 to 875 nM

Now consider COc1ccc(/C=C\CC/C=C/C=C(\C)CCC(O)c2cc(OC)ccc2OC)c(OC)c1 (stereo unspecified) .
> 50000 nM

###

Could you please report measured GI50 for the items listed next?
measurement_notes: Growth inhibition of human 2008 cells incubated for 48 hrs by MTS assay
Format: functional
condition: Homo sapiens, 2008, 48 h

Record request: GI50 value, item COc1cc(/C=C\CC/C=C/C=C(\C)CCC(O)c2cccs2)cc(OC)c1OC (stereo unspecified)
0.28 to 0.311 µM

Now consider "C=CC[C@@H](CC[C@@]1(C)C[C@H]1[C@H]1C[C@@H]1CC/C=C\[C@@H]1CSC([C@@H]2C[C@@H]2C)=N1)OC" .
> 50 µM

Now consider COc1cc(/C=N\OC[C@@H]2C[C@H]2CCC(C)c2cccs2)cc(OC)c1OC (stereo partly specified) .
> 50 µM

Now consider COc1ccccc1C(O)CC/C(C)=C/C=C/CC/C=C\c1cc(OC)c(OC)c(OC)c1 (stereo unspecified) .
0.314 to 0.33 µM

Now consider COc1cc(/C=C\CC/C=C/C=C(\C)CCC(O)c2cc3ccccc3s2)cc(OC)c1OC (stereo unspecified) .
0.36 to 0.38 µM

Now consider COc1cc(/C=N\OC[C@H]2C[C@@H]2[C@@H]2C[C@]2(C)CCC(O)c2cccs2)cc(OC)c1OC (stereo partly specified) .
9.9 µM

###

system_name: Tubulin (Bos taurus) (UniProt Q6B856+Q862L2+Q862F3)
measurement_notes: Inhibition of [3H]colchicine binding to bovine brain tubulin at 50 uM relative to control
metric: inhibition (%)
Could you give me the number in %? Just the number is fine.

Record request: inhibition value, item COc1ccccc1C(O)CC/C(C)=C/C=C/CC/C=C\c1cc(OC)c(OC)c(OC)c1 (stereo unspecified)
73

Now consider COc1cc(/C=C\CC/C=C/C=C(\C)CCC(O)c2cccs2)cc(OC)c1OC (stereo unspecified) .
59

Now consider COc1ccc(OC)c(C(O)CC/C(C)=C/C=C/CC/C=C\c2cc(OC)c(OC)c(OC)c2)c1 (stereo unspecified) .
20.3

Now consider COc1cc(/C=C\CC/C=C/C=C(\C)CCC(O)c2cc3ccccc3o2)cc(OC)c1OC (stereo unspecified) .
68.7

###

system_name: Tubulin (Bos taurus) (UniProt Q6B856+Q862L2+Q862F3)
measurement_notes: Inhibition of [3H]colchicin binding to bovine brain tubulin incubated at 5 uM and 30 degreeC for 10 mins in presence of GTP by scintillation spectroscopic method
Could you please report measured inhibition for the items listed next?
Could you give me the number in %? Just the number is fine.

Give the reported inhibition for "C=CC[C@@H](CC/C(C)=C/C=C/CC/C=C\[C@@H]1CSC(C(C)(C)C)=N1)OC" (system: Tubulin (Bos taurus) (UniProt Q6B856+Q862L2+Q862F3)).
35

Now consider COc1cc(/C=N\OC[C@H]2C[C@@H]2[C@@H]2C[C@]2(C)CCC(O)c2cccs2)cc(OC)c1OC (stereo partly drawn) .
-9

Now consider "C=CC[C@@H](CC/C(C)=C/C=C/CC/C=C\[C@@H]1COC(/C=C/c2ccccc2)=N1)OC" .
9

###

system_name: Tubulin (Bos taurus) (UniProt Q6B856+Q862L2+Q862F3)
measurement_notes: Inhibition of GTP/glutamate-induced bovine brain tubulin polymerization at 5 uM by […]
metric: inhibition

Give the reported inhibition for COc1ccccc1C(O)CC/C(C)=C/C=C/CC/C=C\c1cc(OC)c(OC)c(OC)c1 (stereo not drawn) (system: Tubulin (Bos taurus) (UniProt Q6B856+Q862L2+Q862F3)).
> 100%

Now consider "C=CC[C@@H](CC/C(C)=C/C=C/CC/C=C\[C@@H]1CSC([C@@H]2C[C@@H]2C)=N1)OC" .
97.9 to 98%

Now consider COc1cc(/C=C\CC/C=C/C=C(\C)CCC(O)c2cc3ccccc3s2)cc(OC)c1OC (stereo not drawn) .
> 100%
